Target: T1, CRBN, Q96SW2;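 also: pooled lentiviral library of zinc finger degron-EGFP fusions in mCherry-positive Jurkat cells, FACS-sorted after compound exposure, with degron abundance counted by next-generation sequencing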
T1 chain: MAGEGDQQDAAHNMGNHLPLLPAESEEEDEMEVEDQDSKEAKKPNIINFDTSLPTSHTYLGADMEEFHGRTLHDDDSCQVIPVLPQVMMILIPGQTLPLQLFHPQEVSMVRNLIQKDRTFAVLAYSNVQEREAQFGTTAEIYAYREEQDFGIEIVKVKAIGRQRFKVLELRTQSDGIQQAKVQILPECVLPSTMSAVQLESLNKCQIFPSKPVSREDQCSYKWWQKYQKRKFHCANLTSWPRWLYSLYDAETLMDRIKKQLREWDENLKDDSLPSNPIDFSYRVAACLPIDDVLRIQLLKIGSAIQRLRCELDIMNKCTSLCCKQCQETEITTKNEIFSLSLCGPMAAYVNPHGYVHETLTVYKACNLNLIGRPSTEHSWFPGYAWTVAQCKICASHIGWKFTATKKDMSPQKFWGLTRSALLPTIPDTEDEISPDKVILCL
Test: log2 fold change of degron read counts, EGFP-low vs EGFP+ sorted cells (limma voom), compound-induced degradation; higher = more compound-induced degradation of the degron-EGFP fusion; degrons are variants of IKZF1/3 zinc finger 2; compound dose not given here
Details: Jurkat; 18 h; compound: compound 33 (diphenyl IMiD analogue)
In all, about 8,300 sequences were measured (“log2 fold change of degron read counts, EGFP-low vs EGFP+ sorted cells (limma voom), compound-induced degradation”: median about -1.1, highest 2% from about 3.2 on). The entries come from a sample that favours the highest values as a whole.
Decide by log2 fold change of degron read counts: equal to or exceeding 1 means Yes, less means No.

[
  {
    "SEQUENCE_RECORD": "FHCDVCGAQFTQKGNLLRHIKL [46F_47H_49D_50V_52G_53A_54Q_55F_67L_, Q9UKT9]",
    "CLASS_NAME": "No"
  },
  {
    "SEQUENCE_RECORD": "FDCEVCGASFTQKGNLLRHIKL [46F_47D_49E_50V_52G_53A_54S_55F_67L_, Q9UKT9]",
    "CLASS_NAME": "No"
  },
  {
    "SEQUENCE_RECORD": "FQCDVCGAQFTQKGNLLRHIKL [46F_47Q_49D_50V_52G_53A_54Q_55F_67L_, Q9UKT9]",
    "CLASS_NAME": "No"
  },
  {
    "SEQUENCE_RECORD": "FTCEICGATFTQKGNLLRHIKL [46F_47T_49E_50I_52G_53A_54T_55F_67L_, Q9UKT9]",
    "CLASS_NAME": "Yes"
  },
  {
    "SEQUENCE_RECORD": "FECEVCGASFTQKGNLLRHIKL [46F_47E_49E_50V_52G_53A_54S_55F_67L_, Q9UKT9]",
    "CLASS_NAME": "Yes"
  },
  {
    "SEQUENCE_RECORD": "FWCEICGAKFTQKGNLLRHIKL [46F_47W_49E_50I_52G_53A_54K_55F_67L_, Q9UKT9]",
    "CLASS_NAME": "Yes"
  },
  {
    "SEQUENCE_RECORD": "FACEQCGAKFTQKGNLLRHIKL [46F_47A_49E_50Q_52G_53A_54K_55F_67L_, Q9UKT9]",
    "CLASS_NAME": "No"
  },
  {
    "SEQUENCE_RECORD": "FFCEICGATFTQKGNLLRHIKL [46F_47F_49E_50I_52G_53A_54T_55F_67L_, Q9UKT9]",
    "CLASS_NAME": "Yes"
  },
  {
    "SEQUENCE_RECORD": "FWCEVCGASFTQKGNLLRHIKL [46F_47W_49E_50V_52G_53A_54S_55F_67L_, Q9UKT9]",
    "CLASS_NAME": "Yes"
  },
  {
    "SEQUENCE_RECORD": "FTCEVCGASFTQKGNLLRHIKL [46F_47T_49E_50V_52G_53A_54S_55F_67L_, Q9UKT9]",
    "CLASS_NAME": "Yes"
  },
  {
    "SEQUENCE_RECORD": "FWCDVCGAQFTQKGNLLRHIKL [46F_47W_49D_50V_52G_53A_54Q_55F_67L_, Q9UKT9]",
    "CLASS_NAME": "Yes"
  },
  {
    "SEQUENCE_RECORD": "FQCPVCGAHFTQKGNLLRHIKL [46F_47Q_49P_50V_52G_53A_54H_55F_67L_, Q9UKT9]",
    "CLASS_NAME": "Yes"
  },
  {
    "SEQUENCE_RECORD": "FLCEICGRAFTQKGNLLRHIKL [46F_47L_49E_50I_52G_53R_54A_55F_67L_, Q9UKT9]",
    "CLASS_NAME": "No"
  },
  {
    "SEQUENCE_RECORD": "FYCDVCGAQFTQKGNLLRHIKL [46F_47Y_49D_50V_52G_53A_54Q_55F_67L_, Q9UKT9]",
    "CLASS_NAME": "Yes"
  },
  {
    "SEQUENCE_RECORD": "FSCEICGATFTQKGNLLRHIKL [46F_47S_49E_50I_52G_53A_54T_55F_67L_, Q9UKT9]",
    "CLASS_NAME": "Yes"
  },
  {
    "SEQUENCE_RECORD": "FRCEICGATFTQKGNLLRHIKL [46F_47R_49E_50I_52G_53A_54T_55F_67L_, Q9UKT9]",
    "CLASS_NAME": "Yes"
  },
  {
    "SEQUENCE_RECORD": "FDCEICGATFTQKGNLLRHIKL [46F_47D_49E_50I_52G_53A_54T_55F_67L_, Q9UKT9]",
    "CLASS_NAME": "No"
  },
  {
    "SEQUENCE_RECORD": "FDCPVCGAHFTQKGNLLRHIKL [46F_47D_49P_50V_52G_53A_54H_55F_67L_, Q9UKT9]",
    "CLASS_NAME": "No"
  },
  {
    "SEQUENCE_RECORD": "FGCPVCGAHFTQKGNLLRHIKL [46F_47G_49P_50V_52G_53A_54H_55F_67L_, Q9UKT9]",
    "CLASS_NAME": "Yes"
  },
  {
    "SEQUENCE_RECORD": "FRCNQCGHEFTQKGNLLRHIKL [46F_47R_49N_50Q_52G_53H_54E_55F_67L_, Q9UKT9]",
    "CLASS_NAME": "No"
  },
  {
    "SEQUENCE_RECORD": "FYCPVCGAHFTQKGNLLRHIKL [46F_47Y_49P_50V_52G_53A_54H_55F_67L_, Q9UKT9]",
    "CLASS_NAME": "Yes"
  },
  {
    "SEQUENCE_RECORD": "FVCPVCGAHFTQKGNLLRHIKL [46F_47V_49P_50V_52G_53A_54H_55F_67L_, Q9UKT9]",
    "CLASS_NAME": "Yes"
  },
  {
    "SEQUENCE_RECORD": "FLCEICGATFTQKGNLLRHIKL [46F_47L_49E_50I_52G_53A_54T_55F_67L_, Q9UKT9]",
    "CLASS_NAME": "No"
  },
  {
    "SEQUENCE_RECORD": "FMCPVCGAHFTQKGNLLRHIKL [46F_47M_49P_50V_52G_53A_54H_55F_67L_, Q9UKT9]",
    "CLASS_NAME": "Yes"
  },
  {
    "SEQUENCE_RECORD": "FVCEICGAKFTQKGNLLRHIKL [46F_47V_49E_50I_52G_53A_54K_55F_67L_, Q9UKT9]",
    "CLASS_NAME": "No"
  },
  {
    "SEQUENCE_RECORD": "FQCEICGATFTQKGNLLRHIKL [46F_47Q_49E_50I_52G_53A_54T_55F_67L_, Q9UKT9]",
    "CLASS_NAME": "Yes"
  },
  {
    "SEQUENCE_RECORD": "FVCDVCGAQFTQKGNLLRHIKL [46F_47V_49D_50V_52G_53A_54Q_55F_67L_, Q9UKT9]",
    "CLASS_NAME": "Yes"
  },
  {
    "SEQUENCE_RECORD": "FWCPVCGAHFTQKGNLLRHIKL [46F_47W_49P_50V_52G_53A_54H_55F_67L_, Q9UKT9]",
    "CLASS_NAME": "Yes"
  },
  {
    "SEQUENCE_RECORD": "FKCEVCGASFTQKGNLLRHIKL [46F_47K_49E_50V_52G_53A_54S_55F_67L_, Q9UKT9]",
    "CLASS_NAME": "No"
  }
]
